Experimental Protocol: Apparent volume of distribution at steady state in CD-1 mouse at 0.1 mg/kg, iv administered as bolus dose in absence of ENT1 inhibitor NBMPR-P
Type: ADME, organism-based
Parameters: dose 0.1 mg/kg, route intravenous
Test Settings: in vivo, read-out: Vdss(app)
Result Type: Vd (L/kg)
Numbers only, in L/kg.

Which Vd reading was recorded for the molecule OC[C@H]1O[C@@H](n2cnc3c(N[C@@H]4CCOC4)ncnc32)[C@H](O)[C@@H]1O [TECADENOSON] ? 2.8

====

Experimental Protocol: Apparent volume of distribution at steady state in CD-1 mouse at 60 mg/kg, iv administered as bolus dose in absence of ENT1 inhibitor NBMPR-P
Type: ADME, organism-based
Parameters: dose 60 mg/kg, route intravenous
Test Settings: in vivo, read-out: Vdss(app)
Result Type: Vd (L/kg)
Numbers only, in L/kg.

Which Vd reading was recorded for the compound Nc1nc(F)nc2c1ncn2[C@@H]1O[C@H](CO)[C@@H](O)[C@@H]1O ? 1.6

====

Experimental Protocol: Elimination half life in CD-1 mouse at 0.1 mg/kg, iv administered as bolus dose in presence of ENT1 inhibitor NBMPR-P
Format: ADME, organism-based
Parameters: dose 0.1 mg/kg, route intravenous
Test Settings: in vivo, read-out: beta t1/2 (converted)
Result Type: half-life (h)
Numbers only, in h.

Which half-life reading was recorded for the molecule OC[C@H]1O[C@@H](n2cnc3c(N[C@@H]4CCOC4)ncnc32)[C@H](O)[C@@H]1O ? 1.1

====

Experimental Protocol: Cmax in CD-1 mouse brain at 60 mg/kg, iv administered as bolus dose in absence of ENT1 inhibitor NBMPR-P
Type: ADME, organism-based
Set-up: dose 60 mg/kg, route intravenous
Result Type: Cmax (ng/g)
Give bare numbers, in ng/g.

Which Cmax reading was recorded for the compound Nc1nc(F)nc2c1ncn2[C@@H]1O[C@H](CO)[C@@H](O)[C@@H]1O ? 6050
